Test: Plasma vs tumor PK in MDA-MB-231 xenograft mice
Format: in vivo, athymic nude mice
Assay Setup: athymic nude, mouse; Plasma, oral 75 mg/kg
Endpoint Name: AUC(0-inf) (ng·h/mL)

1. COc1ccc(/C=C/c2cc(OC)cc(B(O)O)c2)cc1 [VMY-BC-1] ... 32300

###

Test: Pharmacokinetics of BC-4 and BC-5 in mouse plasma and brain
Format: in vivo
Assay Setup: mouse, brain; Balb/c mice, single oral dose 5 mg/kg, 30 min; read-out: Brain level, Mean (4) ± SE
Method: Pharmacokinetics of BC-4 and BC-5 were compared to BC-1. Pharmacokinetics were assessed in Balb/c mice administered a single oral dose of 5 mg/kg of the indicated compound (Tables 11 and 12).
Endpoint Name: concentration at 30 min (ng/g)

1. COc1ccc(/C=C/c2cc(OC)cc(B(O)O)c2)cc1 ... 1560
